Where do these numbers come from? They come from PubChem BioAssay (NCI).

System: MDA-MB-435
Experiment: NCI tumour cell line growth inhibition, 48 h
Assign class by TGI: not lower than 10 µM means Yes; lower than 10 µM means No.

Reference set, count: 7
[
  {
    "Compound smiles": "O=[N+]([O-])c1c(Br)sc(Br)c1[N+](=O)[O-]",
    "Subject of test": "MDA-MB-435",
    "Category label": "No"
  },
  {
    "Compound smiles": "N#Cc1c(N)sc2c1-c1ccccc1OC2",
    "Subject of test": "MDA-MB-435",
    "Category label": "Yes"
  },
  {
    "Compound smiles": "O=C1CCC(=O)N1n1c(Cc2ccc(Cl)cc2)n[nH]c1=O",
    "Subject of test": "MDA-MB-435",
    "Category label": "Yes"
  },
  {
    "Compound smiles": "O=C(CCCCCCC(=O)Nc1cccnc1)NO",
    "Subject of test": "MDA-MB-435",
    "Category label": "Yes"
  },
  {
    "Compound smiles": "c1csc(-c2cc(-c3cccs3)c(-c3cccs3)s2)c1",
    "Subject of test": "MDA-MB-435",
    "Category label": "Yes"
  },
  {
    "Compound smiles": "COc1cc(Nc2ccnc(NCCCNc3ccnc4cc(Cl)ccc34)n2)cc(OC)c1",
    "Subject of test": "MDA-MB-435",
    "Category label": "No"
  },
  {
    "Compound smiles": "O=C(/C=C/c1cc([N+](=O)[O-])ccc1Cl)c1ccccc1",
    "Subject of test": "MDA-MB-435",
    "Category label": "Yes"
  }
]

Could you verify whether the entry Cc1c(COc2cc(OCc3cccc(C#N)c3)c(CN3C[C@H](O)C[C@@H]3C(=O)O)cc2Cl)cccc1-c1ccc2c(c1)OCCO2 shows TGI of no less than 10 µM? Yes

====

Test system: BT-549 breast
Assay: NCI tumour cell line growth inhibition, 48 h
Parameter: TGI

Some solved entries appear below for comparison.
[
  {
    "Compound": "COc1cc(Nc2ccnc(NCCCNc3ccnc4cc(Cl)ccc34)n2)cc(OC)c1",
    "Subject of test": "BT-549 breast",
    "TGI": "4.42 µM"
  },
  {
    "Compound": "CC1OC2(CC(OCc3ccccc3)C1OCc1ccccc1)OCCO2 (configuration not stated)",
    "Subject of test": "BT-549 breast",
    "TGI": "> 100 µM"
  },
  {
    "Compound": "O=C1CCCC/C1=C\\c1ccc(Br)cc1",
    "Subject of test": "BT-549 breast",
    "TGI": "28.7 µM"
  },
  {
    "Compound": "COc1ccc2c(c1)C(=O)c1c-2c(Nc2ccc(Cl)cc2)nc2ccccc12",
    "Subject of test": "BT-549 breast",
    "TGI": "27.7 µM"
  },
  {
    "Compound": "Cc1noc2nnn(-c3ccc(Cl)cc3)c(=O)c12",
    "Subject of test": "BT-549 breast",
    "TGI": "13.5 µM"
  }
]

Just so you know, measured TGI for Cc1cccnc1/N=C/c1c(O)n(C)c(=O)[nH]c1=O came out at > 100 µM

Just so you know, measured TGI for CCOC(=O)C(Cl)(NC(=O)c1c(F)c(F)c(F)c(F)c1F)C(F)(F)F (configuration not stated) came out at > 100 µM

Just so you know, measured TGI for Cc1ccc(-n2[nH]nc(C#N)c2=O)cc1 came out at > 100 µM

====

Test system: HCT-15 colon
Assay: NCI tumour cell line growth inhibition, 48 h
Parameter: GI50

Some solved entries appear below for comparison.
[
  {
    "Compound": "CC(C)CCN=C(N)c1ccc(N2CCN(c3ccc(C(N)=NCCC(C)C)cc3)CC2)cc1",
    "GI50": "37600 nM"
  },
  {
    "Compound": "COc1cc(C2=C(C#Cc3ccccc3)COC2=O)cc(OC)c1OC",
    "GI50": "1300 nM"
  },
  {
    "Compound": "CN1CCN(c2ccc3nc(-c4ccc5nc(-c6ccc(OCCC(C)(C)C)cc6)[nH]c5c4)[nH]c3c2)CC1",
    "GI50": "12100 nM"
  },
  {
    "Compound": "COc1cc2c(cc1C)NC(=O)/C2=C\\c1cccc(Oc2ccccc2)c1",
    "GI50": "13300 nM"
  },
  {
    "Compound": "CC[C@@H](C(=O)[C@@H](C)[C@@H](O)[C@H](C)[C@@H]1O[C@@H]([C@@H](CC)C(=O)N(CC)CC)CC[C@@H]1C)C1O[C@]2(C=CC(=O)[C@]3(CC[C@@](C)([C@H]4CC[C@](O)(CC)[C@H](C)O4)O3)O2)[C@H](C)C[C@@H]1C (stereo partly drawn)",
    "GI50": "2020 nM"
  }
]

Just so you know, measured GI50 for CCCCCCCCCCCCCC[n+]1ccc2c(C)c3c(c(C)c2c1)c1cc(O)ccc1n3CC came out at 1210 nM

Just so you know, measured GI50 for Cn1ccnc1C(=O)/C=C/c1ccccc1 came out at 2770 nM

Just so you know, measured GI50 for C[C@@H](CO)[C@@H]1CCC=C2CC[C@]3(C)[C@H](CC[C@@H]4[C@@]5(C)CCCNC(C)(C)[C@@H]5CC[C@]43C)[C@H]21 came out at 1490 nM

====

Tested on: SNB-19 CNS
Test: NCI tumour cell line growth inhibition, 48 h; in the data active means GI50 below about 0.43 µM; inactive means the rest
Hello, when you answer, please use one of the following outcomes: label 1 for active, label 0 for inactive

Reference set, count: 3
[
  {
    "Compound": "Nc1nc(-c2ccc(F)cc2)c(-c2ccc3ncccc3n2)s1",
    "Subject of test": "SNB-19 CNS",
    "Category label": "label 0"
  },
  {
    "Compound": "CCN(C(=O)c1cc(F)ccc1Oc1cncnc1N1CC2(CCN(CC3CCC(NS(=O)(=O)CC)CC3)CC2)C1)C(C)C (centres undefined)",
    "Subject of test": "SNB-19 CNS",
    "Category label": "label 0"
  },
  {
    "Compound": "O=C1/C(=C/c2ccc(Cl)cc2)N=C(c2ccccc2)N1CCc1cccs1",
    "Subject of test": "SNB-19 CNS",
    "Category label": "label 0"
  }
]

Look up the recorded call for CC(=Nc1ccccc1)C1=C(O)C(Cc2ccccc2)NC1=O (centres undefined) in this test. label 1

====

Tested on: SN12C renal
Test: NCI tumour cell line growth inhibition, 48 h; in the data active = GI50 below about 0.43 µM; inactive = the rest
Hello, when you answer, please use one of the following outcomes: 1 (yes) = active, 0 (no) = inactive

Reference set, count: 5
[
  {
    "Molecule": "CC1(C)[C@@H](O[C@@H]2OC[C@@H](O[C@@H]3O[C@H](CO)[C@@H](O)[C@H](O)[C@H]3O[C@@H]3OC[C@@H](O)[C@H](O)[C@H]3O)[C@H](O)[C@H]2O[C@@H]2O[C@H](CO)[C@@H](O)[C@H](O)[C@H]2O)CC[C@]2(C)[C@H]3CC[C@]45OC[C@@]6(CC[C@](C)(C=O)C[C@H]64)[C@H](O)C[C@@]5(C)[C@]3(C)CC[C@@H]12",
    "Category label": "0 (no)"
  },
  {
    "Molecule": "COc1ccc(-c2nc3ccccn3c2/C=C/C(=O)c2cc(OC)c(OC)c(OC)c2)cc1",
    "Category label": "0 (no)"
  },
  {
    "Molecule": "COc1cc(C2=C(C#Cc3ccccc3)COC2=O)cc(OC)c1OC",
    "Category label": "1 (yes)"
  },
  {
    "Molecule": "C=C1CCC2C(C)(C)CCC[C@]2(C)[C@H]1CO (some centres not stated)",
    "Category label": "0 (no)"
  },
  {
    "Molecule": "Cc1cc(Cl)ccc1NC(=O)c1cc2ccccc2cc1O",
    "Category label": "1 (yes)"
  }
]

Look up the recorded call for Nc1nc(-c2ccc(F)cc2)c(-c2ccc3ncccc3n2)s1 in this test. 0 (no)

Look up the recorded call for CCNC(=O)c1cc2c(-c3cc(C(C)(C)O)ccc3Oc3c(C)cc(F)cc3C)cn(C)c(=O)c2[nH]1 in this test. 0 (no)

Look up the recorded call for CC(C)CCN=C(N)c1ccc(N2CCN(c3ccc(C(N)=NCCC(C)C)cc3)CC2)cc1 in this test. 0 (no)

====

Test system: SK-MEL-5 melanoma
Experiment: NCI tumour cell line growth inhibition, 48 h
Parameter: TGI

[
  {
    "Compound": "Cc1cc(C)c2c(n1)S(=O)(=O)N(CCCN1CCN(c3cccc(C(F)(F)F)c3)CC1)c1c-2nn(C)c1C",
    "TGI": "> 100 µM"
  },
  {
    "Compound": "CC(=O)O[C@]1(C(C)=O)CC[C@H]2[C@@H]3C=C(C)C4=CC(=O)CC[C@]4(C)[C@H]3CC[C@@]21C",
    "TGI": "> 100 µM"
  },
  {
    "Compound": "c1csc(-c2cc(-c3cccs3)c(-c3cccs3)s2)c1",
    "TGI": "> 100 µM"
  },
  {
    "Compound": "Cc1cc(C)nc(SC(C)C(=O)N/N=C/c2ccc(OCc3ccccc3)cc2)n1 (stereo not given)",
    "TGI": "20.5 µM"
  },
  {
    "Compound": "CSc1c(C#N)c(N)nc2c(N=Nc3ccc(Cl)cc3)c(N)nn12",
    "TGI": "35 µM"
  },
  {
    "Compound": "O=C(/C=C/c1cc(O)c(O)cc1O)OCCc1ccccc1",
    "TGI": "38.4 µM"
  },
  {
    "Compound": "C/C(=C/C(=O)Nn1c(Cc2ccccc2)n[nH]c1=O)C(=O)O",
    "TGI": "> 100 µM"
  },
  {
    "Compound": "N#C/C(=C\\c1cc(Cl)cc(Cl)c1)c1ccccn1",
    "TGI": "> 100 µM"
  }
]

Just so you know, measured TGI for O=CC[C@H]1CCc2ccccc2C12CCC(=O)CC2 came out at > 100 µM

Just so you know, measured TGI for CC(=O)O[C@@H]1C2=C(C)C=C(O2)[C@H]2O[C@]2(C)C[C@H]2C=C(C(=O)O2)[C@H](OC(C)=O)CC1[C@@]1(C)CO1 (stereo not given in full) came out at > 100 µM
